- protocol_description: Cmax in Wistar rat at 1.0 mg/kg, po
- Type: ADME, organism-based
- Set-up: dose 1 mg/kg, route oral
- condition_details: in vivo
experimental_endpoint: Cmax (ng/mL)

INSERT INTO measurements (molecule, experimental_endpoint, assay_value) VALUES
  ('COc1ccc(NC(=O)Nc2ccc(Cl)cc2)cc1-c1c(Br)cnn1C', 'Cmax', 45);

###

Reported AUC(0-inf) values for the following compounds.
- protocol_description: AUC (0 to infinity) in Wistar rat at 1.4 mg/kg, po
- Type: ADME, organism-based
- Design: time infinity, dose 1.4 mg/kg, route oral
- condition_details: plasma
experimental_endpoint: AUC(0-inf) (ng·h/mL)

INSERT INTO measurements (molecule, assay_value) VALUES
  ('COc1ccc(NC(=O)Nc2ccc(F)cc2F)cc1-c1c(Br)cnn1C', 298),
  ('COc1ccc(NC(=O)Nc2ccc(F)cc2)cc1-c1c(Br)cnn1C', 507);

###

- study_system: 5-hydroxytryptamine receptor 2A (Homo sapiens, UniProt P28223)
- Sequence (P28223 whole entry): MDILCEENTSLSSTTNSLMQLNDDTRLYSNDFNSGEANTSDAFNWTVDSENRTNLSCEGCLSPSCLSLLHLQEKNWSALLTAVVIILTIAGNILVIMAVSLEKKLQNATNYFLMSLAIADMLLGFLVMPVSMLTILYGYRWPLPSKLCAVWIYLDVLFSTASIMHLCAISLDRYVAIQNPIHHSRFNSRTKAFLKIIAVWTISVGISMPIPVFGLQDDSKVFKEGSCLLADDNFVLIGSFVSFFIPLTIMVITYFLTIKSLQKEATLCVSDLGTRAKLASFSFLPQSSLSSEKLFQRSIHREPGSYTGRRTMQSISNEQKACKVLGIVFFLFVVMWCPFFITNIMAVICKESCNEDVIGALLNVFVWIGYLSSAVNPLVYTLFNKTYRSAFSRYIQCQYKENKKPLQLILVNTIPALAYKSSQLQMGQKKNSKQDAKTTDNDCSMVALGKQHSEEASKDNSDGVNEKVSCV
- protocol_description: Activity at human 5HT2A receptor expressed in HEK293 cells assessed as [3H]inositol phosphate production by scintillation counting
- Format: functional, cell-based
- condition_details: read-out: pIC50 (converted)
experimental_endpoint: IC50

INSERT INTO results (molecule, assay_value) VALUES
  ('COc1ccc(NC(=O)Nc2ccc(Br)cc2)cc1-c1c(Br)cnn1C', '0.501 nM'),
  ('COc1ccc(NC(=O)Nc2ccc(OC)c(-c3c(Br)cnn3C)c2)cc1', '0.398 nM'),
  ('COc1ccc(NC(=O)Nc2ccc(C(C)C)cc2)cc1-c1c(Br)cnn1C', '2.51 nM'),
  ('COc1ccc(NC(=O)Nc2ccc(F)cc2F)cc1-c1c(Br)cnn1C [NELOTANSERIN]', '0.631 nM'),
  ('Cn1ncc(Br)c1-c1cc(NC(=O)Nc2ccc(Cl)cc2)ccc1OCc1ccc(Cl)cc1', '12.6 nM'),
  ('COc1ccc(NC(=O)Nc2cc(C(F)(F)F)cc(C(F)(F)F)c2)cc1-c1c(Cl)cnn1C', '3.98 nM'),
  ('COc1ccc(NC(=O)Nc2cccc(Cl)c2)cc1-c1c(Br)cnn1C', '0.398 nM'),
  ('COc1ccc(NC(=O)Nc2cc(C(F)(F)F)cc(C(F)(F)F)c2)cc1-c1c(Br)cnn1C', '2 nM'),
  ('COc1ccc(NC(=O)Nc2ccc(Cl)cc2)cc1-c1c(Br)cnn1C(C)C', '1.26 nM'),
  ('COc1ccc(NC(=O)Nc2cccc(C(F)(F)F)c2)cc1-c1c(Br)cnn1C', '0.398 nM');

###

- protocol_description: Tmax in Wistar rat at 1.5 mg/kg, po
- Format: ADME, organism-based
- Design: dose 1.5 mg/kg, route oral
- condition_details: in vivo
experimental_endpoint: Tmax (h)

INSERT INTO results (molecule, experimental_endpoint, assay_value) VALUES
  ('COc1ccc(NC(=O)Nc2ccc(Cl)cc2)cc1-c1c(Cl)cnn1C', 'Tmax', 6);

###

- study_system: 5-hydroxytryptamine receptor 2C (Homo sapiens, UniProt P28335)
- Sequence (P28335 whole entry): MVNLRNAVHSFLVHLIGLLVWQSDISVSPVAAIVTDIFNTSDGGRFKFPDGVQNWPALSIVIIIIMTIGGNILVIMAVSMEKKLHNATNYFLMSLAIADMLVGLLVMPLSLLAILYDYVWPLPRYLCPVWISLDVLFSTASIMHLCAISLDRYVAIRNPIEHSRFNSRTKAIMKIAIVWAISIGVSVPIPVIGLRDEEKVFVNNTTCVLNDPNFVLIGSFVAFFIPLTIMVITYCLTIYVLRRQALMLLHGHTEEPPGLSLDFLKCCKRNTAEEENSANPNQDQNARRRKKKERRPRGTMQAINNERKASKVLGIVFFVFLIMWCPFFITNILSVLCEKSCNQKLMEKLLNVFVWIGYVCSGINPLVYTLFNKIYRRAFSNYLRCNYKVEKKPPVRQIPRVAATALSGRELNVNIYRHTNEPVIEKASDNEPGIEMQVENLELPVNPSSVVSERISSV
- protocol_description: Displacement of [3H]DOI from human recombinant 5HT2C receptor expressed in HEK293 cells by scintillation counting
- Type: cell-based
- condition_details: in the assay text read “[125I]DOI” for “[3H]DOI”
We label by threshold. Values of Ki strictly beneath 100 nM are yes. Values of 100 nM and up are no.

INSERT INTO results (molecule, study_system, assigned_label) VALUES
  ('Cn1ncc(Br)c1-c1cc(NC(=O)Nc2ccc(Cl)cc2)ccc1OCc1ccc(Cl)cc1', '5-hydroxytryptamine receptor 2C (Homo sapiens, UniProt P28335)', 'no'),
  ('COc1ccc(NC(=O)Nc2cccc(C(C)=O)c2)cc1-c1c(Br)cnn1C', '5-hydroxytryptamine receptor 2C (Homo sapiens, UniProt P28335)', 'no'),
  ('CC(C)Oc1ccc(NC(=O)Nc2ccc(Cl)cc2)cc1-c1c(Br)cnn1C', '5-hydroxytryptamine receptor 2C (Homo sapiens, UniProt P28335)', 'yes'),
  ('COc1ccc(NC(=O)Nc2ccc(Cl)cc2)cc1-c1c(Br)cnn1C(C)C', '5-hydroxytryptamine receptor 2C (Homo sapiens, UniProt P28335)', 'yes'),
  ('Cn1ncc(Br)c1-c1cc(NC(=O)Nc2ccc(Cl)cc2)ccc1OCc1ccccc1', '5-hydroxytryptamine receptor 2C (Homo sapiens, UniProt P28335)', 'no'),
  ('COc1ccc(NC(=O)Nc2ccc(F)c(F)c2)cc1-c1c(Cl)cnn1C', '5-hydroxytryptamine receptor 2C (Homo sapiens, UniProt P28335)', 'yes'),
  ('COc1ccc(NC(=O)Nc2cccc(Cl)c2)cc1-c1c(Br)cnn1C', '5-hydroxytryptamine receptor 2C (Homo sapiens, UniProt P28335)', 'yes'),
  ('COc1ccc(NC(=O)Nc2ccc(C(C)C)cc2)cc1-c1c(Br)cnn1C', '5-hydroxytryptamine receptor 2C (Homo sapiens, UniProt P28335)', 'yes'),
  ('COc1ccc(NC(=O)Nc2cc(F)cc(F)c2)cc1-c1c(Br)cnn1C', '5-hydroxytryptamine receptor 2C (Homo sapiens, UniProt P28335)', 'yes'),
  ('Cn1ncc(Br)c1-c1cc(NC(=O)Nc2ccc(Cl)cc2)ccc1OCCc1ccccc1', '5-hydroxytryptamine receptor 2C (Homo sapiens, UniProt P28335)', 'no'),
  ('Cn1ncc(Br)c1-c1cc(NC(=O)Nc2ccc(Cl)cc2)ccc1O', '5-hydroxytryptamine receptor 2C (Homo sapiens, UniProt P28335)', 'yes'),
  ('COc1ccc(NC(=O)Nc2ccc(Cl)cc2Cl)cc1-c1c(Br)cnn1C', '5-hydroxytryptamine receptor 2C (Homo sapiens, UniProt P28335)', 'yes'),
  ('COc1ccc(NC(=O)Nc2ccc(Cl)cc2C(F)(F)F)cc1-c1c(Br)cnn1C', '5-hydroxytryptamine receptor 2C (Homo sapiens, UniProt P28335)', 'no'),
  ('COc1ccc(NC(=O)Nc2cccc(C(F)(F)F)c2)cc1-c1c(Br)cnn1C', '5-hydroxytryptamine receptor 2C (Homo sapiens, UniProt P28335)', 'yes'),
  ('COc1ccc(NC(=O)Nc2ccc(OC)c(-c3c(Br)cnn3C)c2)cc1', '5-hydroxytryptamine receptor 2C (Homo sapiens, UniProt P28335)', 'no'),
  ('CCOc1ccc(NC(=O)Nc2ccc(Cl)cc2)cc1-c1c(Br)cnn1C', '5-hydroxytryptamine receptor 2C (Homo sapiens, UniProt P28335)', 'yes'),
  ('COc1ccc(NC(=O)Nc2ccc(F)cc2F)cc1-c1c(Br)cnn1C', '5-hydroxytryptamine receptor 2C (Homo sapiens, UniProt P28335)', 'no'),
  ('COc1ccc(NC(=O)Nc2ccc(Cl)cc2)cc1-c1ccnn1C', '5-hydroxytryptamine receptor 2C (Homo sapiens, UniProt P28335)', 'no'),
  ('COc1ccc(NC(=O)Nc2ccc(Cl)cc2)cc1-c1c(Cl)cnn1C', '5-hydroxytryptamine receptor 2C (Homo sapiens, UniProt P28335)', 'yes'),
  ('COc1ccc(NC(=O)Nc2ccc(Cl)cc2)cc1-c1c(Br)cnn1C', '5-hydroxytryptamine receptor 2C (Homo sapiens, UniProt P28335)', 'yes'),
  ('Cn1ncc(Br)c1-c1cc(NC(=O)Nc2ccc(Cl)cc2)ccc1OC(F)(F)F', '5-hydroxytryptamine receptor 2C (Homo sapiens, UniProt P28335)', 'yes');
